Origin of the recorded values: the supplement of paper PMC9170038

System: MS2 coat protein
Experiment Notes: apparent KD of MS2 coat protein; designed switch direction (-1 OFF switch, 1 ON switch): -1; higher = weaker reporter binding
Condition Info: input ligand: none
Reported Property: apparent KD of MS2 coat protein
Quote the value and follow it with the unit of measurement.

1. UACAGUCAUCCUUAUUGUUACAUGAGGAUCACCCAUGUUAGUAUAAUUAAGUUAUGUAAGUUUGUUGUUCGUUUUAU [JR_STOV1_v2_Sub075] (Eterna round: R97, puzzle: Sensor, turn-off variant 1)	0.0846 µM

Retrieve apparent KD of MS2 coat protein measured for CAGUACUGAGGAUAUACAUGAGGAUCACCCAUGUGUUCCAGCUAGGAAACUAGCAAGAGUAGAAGGCAGUACUG [salish99_ex3_r3_066] (Eterna round: R96, puzzle: Exclusion 3) and print it. 0.0229 µM

Retrieve apparent KD of MS2 coat protein measured for AAAAUACGCACAGGAUAUCAAUACAUGAGGAUCACCCAUGUAACAUGGACUGGUCAGCAGAAAAGUGAGAAGGGUGCUGACGAC [Beraon] (Eterna round: R96, puzzle: Exclusion NG 2) and print it. 0.0456 µM

Retrieve apparent KD of MS2 coat protein measured for CUCUUGAGUCAGGAUAUCGAGAGGCUAAUAAAACGAGAAGGGACUACAUGAGGAUCACCCAUGUGAUCGCAAAA [Geonge] (Eterna round: R97, puzzle: Exclusion 6) and print it. 0.0617 µM

Retrieve apparent KD of MS2 coat protein measured for CUGUGCAUAGGAUAUGAAAGAAGAAACAUGAGGAUCACCCAUGUAGCCUCAAAUCUUAUGUCAGAAGGAUGCGUUA [Default title] (Eterna round: R97, puzzle: Exclusion 5) and print it. 0.0136 µM

====

Tested on: MS2 coat protein
Experiment Notes: apparent KD of MS2 coat protein; higher = weaker reporter binding
Condition Info: Eterna round: R107; input ligand: arginine 13.2 mM
Reported Property: apparent KD of MS2 coat protein (nM)
Respond with the bare value in nM.

Check out these entries, answers already filled in.
1) AGACAUGAGGAUCACCCAUGUAGUACGGAUACCAGAUCCAGAUGUAUCCCUUGGCAGCUGUGGUACAGCGUUGCAUCGCUCCUAG [Exclusion - Theophylline A (Freestyle 19)]	13.1
2) AGCCGCGUUCUUUCUUUCUUUCUAGCGGCACGAGGACCGGUACGGCCGCCACUCGCCCACAUGAGGAUCACCCAUGUAGUGGGUG [The One Ring #2]	18.5
3) AGAUGAGUCACGGCCGCCACUCUUCACAGGUUCACCCUUGGUUAACAUGAGGAUCACCCAUGUGGGAGGACCGGGUGAUGAGCAU [XTryp B #5]	14.2
4) UAGCGAUAAUCUGAUACCAGACGUGUGCUCUCCUCAGACAUGAGGAUCACCCAUGUAUGCGUCCCUUGGCAGCAGAGUGAGGAGA [Theo B Ex t5]	19.6
5) CCUAUGCAGUCGGCCGCCACUGAGUCCUCAAUAAUAAAUUAAUAUACAUGAGGAUCACCCAUGUACAGGACCGGGACUGUAUAGG [Ex Tryptophan B 13]	96.7

Retrieve apparent KD of MS2 coat protein measured for CUUGUGGUCGGAAGGAGCGCGAUUACAUAACAUGAGGAUCACCCAUGUAAGAAAUUAUUCAUGCAGGUAGGUCGCCGGUCGUGGG [Same State Arginine B GF10] and print it. 22

====

Test system: K4 kissing-loop RNA reporter;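 further: bound reporter read as fluorescence of individual clusters on recovered sequencing chips by microscopy, with normalized cluster intensities fitted with a binding model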
Experiment Notes: apparent KD of K4 kissing-loop reporter; higher = weaker reporter binding
Condition Info: Eterna round: R107; input ligand: theophylline 20 uM
Decide using apparent KD of K4 kissing-loop reporter: a value greater than or equal to 200 nM is class 1, a smaller one is class 0.

For orientation, consider the following solved cases.
1. GGAGUGAUGUUCCAUUUUUAAAUCUCCGAUACCAGUAUGGAAACAUACCCUUGGCAGCGGUAAACCGCAGAUUAGGAAACUAGUC [Theophylline A K4 1]	class 1
2. AGGUCACGAGGAAGGAGCGCCCUGACAGGUUGCUGCCGUGGGCAGUGAUGUUGCUCAGUCCGGCAGGUAGGUCGCCUCGUGACCU	class 0
3. CGAAGAGAGUGAUGUUCUCUAGGCAAAAGAAAGGAUAUAAUGUUUGUUAGAAGGUUCGGAAAAUGGAACGUCGGCCCGUACAACC [theeternabot_exclusion_KL_FMN_A_18]	class 0

Assess whether reported apparent KD of K4 kissing-loop reporter for GAGGCCAAACGGAGUGAUGUUUCGUAUGAUACCAGCAGCGAAAGCUGCCCUUGGCAGCAUGCCACGGCCUCGGCAGGAAACUGCC sits at 200 nM or higher. class 1

Assess whether reported apparent KD of K4 kissing-loop reporter for UUGGCAGUGAUGUUGCCAGAGCUCACCGAAGGAGCGCGUGAAAACGCAGGUAGGUCGCGGUAGCGGAGUGAUUCUCCGCGAGGGC [Same State Arginine A GF 21] sits at 200 nM or higher. class 0

Assess whether reported apparent KD of K4 kissing-loop reporter for CCGAGCCUGACGUAAGUCAGGCUCUGCGAGCGAGGACCGGUACGGCCGCCACUCGGUGCAGUGAUGUUGCAUGGCCGCAAGGCCG [#2 Exclusion - Tryptophan A Attempt #23 (HarryS)] sits at 200 nM or higher. class 1

====

Tested on: MS2 coat protein
Experiment Notes: apparent KD of MS2 coat protein; designed switch direction (-1 OFF switch, 1 ON switch): -1; higher = weaker reporter binding
Condition Info: input ligand: none
Decide using apparent KD of MS2 coat protein: a value greater than or equal to 50 nM is Met, a smaller one is Not met.

1) ACCUCUGCUGAGGAUAUCCUUGCGGAAGAAGGAGGAGAAGGCAGAACAUGAGGAUCACCCAUGUGGGAACAACG [Eternabot (Original) Solution 37] (Eterna round: R97, puzzle: Exclusion 6)	Met
2) ACAAAGGAUACAGGAUAUCGCGUACAAGUGCAGCGAGAAGGGUAUUCUAUGCGCUAUCCGACAUGAGGAUCACCCAUGUGGUCC [Eternabot solution 47] (Eterna round: R96, puzzle: Exclusion NG 1)	Met
3) CUGCGUAGAGGAUAUACAUGAGGAUCACCCAUGUGCUAAAUGACUGCAUGCAAAUCGUGUAGAAGGUUGAAGGG [Eternabot (L2) Solution 85] (Eterna round: R97, puzzle: Exclusion 3)	Not met
4) CAAUGAGGAGUGAGGAUAUCGUGUUCGAAAGAACGUGAGAAGGCACAUGAGGAUCACCCAUGUGAUCCUCAUUG [Omei Ex4B A24] (Eterna round: R97, puzzle: Brourd's mod of Exclusion 4)	Met
5) AAGAGCAAGGCAGGAUAUCACAUGAGGAUCACCCAUGUAUCCGAAAGAACAACGCCCGCGUUGUGUGAGAAGGGUCUAUGCAGG [Eternabot solution 10] (Eterna round: R96, puzzle: Exclusion NG 2)	Met
6) ACAAGCUUUUGCUCGUCUUACAUGAGGAUCACCCAUGUCGGGAGCAUGCAUACGUCCAGCAUCUGGACCGUAGCAGA [-25.7, -49.8 kcal, 25% A] (Eterna round: R97, puzzle: Sensor, turn-off variant 1)	Not met
7) CGGCUACGAUGAGGAUAUACGCACAUGAGGAUCACCCAUGUAAAUCACGGGUAAAGAUCUUCAUCGUAGAAGGCAUAAGGGCCC [Edarbelabe] (Eterna round: R96, puzzle: Exclusion NG 2)	Not met
8) GGUCGUAGACAGGAUAUGCGGCAAAGAAACAAAGCAGAAGGGUCUACUUGAGGAUCACCCAAGUGGGCGGUUAA [Atrele] (Eterna round: R97, puzzle: Exclusion 6)	Not met

// next entry
Assess whether reported apparent KD of MS2 coat protein for UAGAAUCGAGGAUAUACAUGAGGAUCACCCAUGUGUGGCCAUUUGGUGUGGUCGUCAGGUAGAAGGCGAUUACA [Exclusion 3 - Mod of Jieux's Gilly Gone Silly 23 v.5] (Eterna round: R96, puzzle: Exclusion 3) sits at 50 nM or higher. Met

====

Test system: MS2 coat protein
Experiment Notes: apparent KD of MS2 coat protein; higher = weaker reporter binding
Condition Info: Eterna round: R107; input ligand: arginine 13.2 mM
Reported Property: apparent KD of MS2 coat protein (nM)
Respond with the bare value in nM.

1. AUUAAGGAUAUAUAGAAGGCGGAGAAGAGACGAGGACCGGUACGGCCGCCACUCGUGUUAGUUAACAUGAGGAUCACCCAUGUAA [Turkey 2]	41.3
2. UUAUAAGUACCGGUCCUCAGAUCCUCAUGACGAGGACCGGUACGGCCGCCACUCGAAACAUGAGGAUCACCCAUGUAAUAACAUC [Brourdmod21]	19

Retrieve apparent KD of MS2 coat protein measured for UCUCAAGGCCGCUCGGUGCUCCCUGGUGAUACCAGCCAUAUAUCCGGCCCUUGGCAGCACAUGAGGAUCACCCAUGUAGCAGGCG [Sorimaat] and print it. 18
